protocol_notes: Effect of temperature on aqueous solubility
particulars: 21 °C, water, thermodynamic from solid
value_type: solubility at 24 h (µg/mL)
One number for each entry, in µg/mL.

Query: Can you share its solubility at 24 h? I mean this compound: NCCCCCC(O)(P(=O)(O)O)P(=O)(O)O [Compound 4, reference compound]
Response: 5170

----------
protocol_notes: Protonation constants by (traditional) potentiometric titration (TPT), SUPERQUAD
particulars: log K, pKa2 (H3L− + H+ ⇋ H4L), TPT, 0.1 M NaNO3, 25 °C
value_type: pKa

Query: Can you share its pKa? I mean this compound: NCCCCCC(O)(P(=O)(O)O)P(=O)(O)O [Compound 4, reference compound]
Response: 2.38

----------
protocol_notes: Protonation constants by (traditional) potentiometric titration (TPT), SUPERQUAD
particulars: overall protonation, zero level H2L2−, 0.1 M NaNO3, 25 °C
I'd appreciate it if you could supply logβx ± 3σ, x = 2 (H4L) values for the items below.
Answers are plain numbers.

- molecule: "NCCCC(O)(P(=O)(O)O)P(=O)(O)O [Compound 2, reference compound]"
  logβx ± 3σ, x = 2 (H4L): 8.38
- molecule: "NCCCCCCCC(O)(P(=O)(O)O)P(=O)(O)O [Compound 5]"
  logβx ± 3σ, x = 2 (H4L): 9.27

For the 3 molecules below, give their logβx ± 3σ, x = 2 (H4L) values.
1. NCCCCCC(O)(P(=O)(O)O)P(=O)(O)O [Compound 4, reference compound]
2. NCCC(O)(P(=O)(O)O)P(=O)(O)O [Compound 1]
3. NCCCCC(O)(P(=O)(O)O)P(=O)(O)O [Compound 3]

Response:
1: 9.00; 2: 7.60; 3: 8.74

----------
I'd appreciate it if you could supply logβx ± 3σ, x = −2 (L4−) values for the items below.
protocol_notes: Protonation constants by (traditional) potentiometric titration (TPT), SUPERQUAD
particulars: overall protonation, zero level H2L2−, 0.1 M NaNO3, 25 °C
Give bare numbers.

- compound: "NCCCCC(O)(P(=O)(O)O)P(=O)(O)O [Compound 3]"
  measured: "−22.83"

For the 4 compounds below, give their logβx ± 3σ, x = −2 (L4−) values.
1. NCCCC(O)(P(=O)(O)O)P(=O)(O)O [Compound 2, reference compound]
2. NCCC(O)(P(=O)(O)O)P(=O)(O)O [Compound 1]
3. NCCCCCC(O)(P(=O)(O)O)P(=O)(O)O [Compound 4, reference compound]
4. NCCCCCCCC(O)(P(=O)(O)O)P(=O)(O)O [Compound 5]

Response:
1. −22.82
2. −22.90
3. −22.80
4. −22.32

----------
protocol_notes: pKa determination with Sirius instrument (PCA200)
value_type: pKa 3 (Sirius)

For the 2 compounds below, give their pKa 3 (Sirius) values.
1. NCCCCC(O)(P(=O)(O)O)P(=O)(O)O [Compound 3]
2. NCCCCCCCC(O)(P(=O)(O)O)P(=O)(O)O [Compound 5]

Response:
2.42
6.46

For the 2 compounds below, give their pKa 3 (Sirius) values.
1. NCCCCCC(O)(P(=O)(O)O)P(=O)(O)O [Compound 4, reference compound]
2. NCCC(O)(P(=O)(O)O)P(=O)(O)O [Compound 1]

Response:
1: 6.36; 2: 5.93

This collection of values is drawn from paper PMC6268373.
